Target: ITK (Homo sapiens, UniProt Q08881)
Sequence (Q08881 1-620): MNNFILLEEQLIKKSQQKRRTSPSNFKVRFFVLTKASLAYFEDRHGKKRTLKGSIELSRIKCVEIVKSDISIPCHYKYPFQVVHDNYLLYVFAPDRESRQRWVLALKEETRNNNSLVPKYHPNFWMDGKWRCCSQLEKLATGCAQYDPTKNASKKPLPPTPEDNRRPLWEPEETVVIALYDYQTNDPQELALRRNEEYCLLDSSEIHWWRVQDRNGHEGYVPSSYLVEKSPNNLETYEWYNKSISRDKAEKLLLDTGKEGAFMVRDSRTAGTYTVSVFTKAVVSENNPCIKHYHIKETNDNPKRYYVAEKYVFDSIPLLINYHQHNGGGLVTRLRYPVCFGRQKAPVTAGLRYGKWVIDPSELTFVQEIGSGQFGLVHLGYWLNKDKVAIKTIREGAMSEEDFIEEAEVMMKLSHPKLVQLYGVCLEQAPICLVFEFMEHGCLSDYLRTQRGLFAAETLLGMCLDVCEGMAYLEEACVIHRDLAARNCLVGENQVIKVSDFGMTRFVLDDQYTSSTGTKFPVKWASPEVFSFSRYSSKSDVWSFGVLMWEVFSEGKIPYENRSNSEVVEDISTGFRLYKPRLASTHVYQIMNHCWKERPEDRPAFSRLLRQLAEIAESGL
pKi: −log10 of the molar value.
Readings of pKi for the listed molecules
measurement-label: pKi

{"molecule": "CC12Cc3[nH]nc(C(=O)Nc4cnn(C(CS(C)(=O)=O)c5cccnc5)c4)c3CC1C2 (single isomer, unassigned) [Example 93a]", "relation-qualifier": ">", "measured-result": 10.00}
{"molecule": "CN(CC(c1ccccc1)n1cc(NC(=O)c2n[nH]c3c2CCC(C)(C)C3)cn1)S(C)(=O)=O (single isomer, unassigned) [Example 61a]", "relation-qualifier": "=", "measured-result": 8.30}
{"molecule": "CN1CCN(CC(c2ccccc2)n2cc(NC(=O)c3n[nH]c4c3CCC(C)(C)C4)cn2)C1=O (single isomer, unassigned) [Example 131b]", "relation-qualifier": "=", "measured-result": 7.96}
{"molecule": "CN(CCC(c1ccccc1)n1cc(NC(=O)c2n[nH]c3c2CCC(C)(C)C3)cn1)C1COC1 (single isomer, unassigned) [Example 58a]", "relation-qualifier": "=", "measured-result": 8.15}
